# experiment-description: Cytotoxicity against HEK293T cells cotransfected with pCMV-Script-hFXR/pGL4.11-hSHP-Luciferase incubated for 24 hrs in presence of GW4064 by celltiter-blue cell viability assay
# Assay type: toxicity, cell-based, HEK-293T
# test-settings: human
Provide the recorded IC50 at 24 h for the entries that follow.
Entry rule: numbers only, all in µM.

Request: Name the recorded IC50 at 24 h for CCCC(=O)O[C@@H]1CC[C@]2(C)[C@H]3CC[C@@H]4[C@H]5[C@H]([C@@H](C)C(=O)O)CC[C@]5(C(=O)NCC(=O)O)CC[C@@]4(C)[C@]3(C)CC[C@H]2C1(C)C .
Response: 97.2

Request: Same read-out for CC(C)[C@@H]1CC[C@]2(C(=O)NCC(=O)O)CC[C@]3(C)[C@H](CC[C@@H]4[C@@]5(C)CC[C@@H](OC(=O)c6ccccc6)C(C)(C)[C@@H]5CC[C@]43C)[C@@H]12 ?
Response: 35

---

# experiment-description: Cytotoxicity against HEK293T cells cotransfected with pCMV-Script-hFXR/pGL4.11-hSHP-Luciferase incubated for 24 hrs in presence of GW4064 by celltiter-blue cell viability assay
# Type: toxicity, cell-based, HEK-293T
# test-settings: human
Provide the recorded IC50 at 24 h for the entries that follow.

Request: Name the recorded IC50 at 24 h for CCC(=O)O[C@@H]1CC[C@]2(C)[C@H]3CC[C@@H]4[C@H]5[C@H](C(C)C)CC[C@]5(C(=O)NCC(=O)O)CC[C@@]4(C)[C@]3(C)CC[C@H]2C1(C)C .
Response: > 100 µM

Request: Same read-out for CCNC(=O)O[C@@H]1CC[C@]2(C)[C@H]3CC[C@@H]4[C@H]5[C@H](C(C)C)CC[C@]5(C(=O)NCC(=O)O)CC[C@@]4(C)[C@]3(C)CC[C@H]2C1(C)C ?
Response: 56 µM

Request: Same read-out for CCCC(=O)O[C@@H]1CC[C@]2(C)[C@H]3CC[C@@H]4[C@H]5[C@H](C(C)C)CC[C@]5(NC(=O)OCC(=O)O)CC[C@@]4(C)[C@]3(C)CC[C@H]2C1(C)C ?
Response: 1 µM

Request: Same read-out for CC(C)[C@@H]1CC[C@]2(C(=O)NCC(=O)O)CC[C@]3(C)[C@H](CC[C@@H]4[C@@]5(C)CC[C@@H](OC(=O)C6CCC6)C(C)(C)[C@@H]5CC[C@]43C)[C@@H]12 ?
Response: > 100 µM

Request: Same read-out for CCCC(=O)O[C@@H]1CC[C@]2(C)[C@H]3CC[C@@H]4[C@H]5[C@H](C(C)C)CC[C@]5(C(=O)NCCC(=O)O)CC[C@@]4(C)[C@]3(C)CC[C@H]2C1(C)C ?
Response: > 100 µM

Request: Same read-out for CCCC(=O)O[C@@H]1CC[C@]2(C)[C@H]3CC[C@@H]4[C@H]5[C@H](C(C)C)CC[C@]5(C(=O)NCCS(=O)(=O)O)CC[C@@]4(C)[C@]3(C)CC[C@H]2C1(C)C ?
Response: > 100 µM

Request: Same read-out for COc1ccc(C(=O)O[C@@H]2CC[C@]3(C)[C@H]4CC[C@@H]5[C@H]6[C@H](C(C)C)CC[C@]6(C(=O)NCC(=O)O)CC[C@@]5(C)[C@]4(C)CC[C@H]3C2(C)C)cc1 ?
Response: > 100 µM

Request: Same read-out for C[C@H](CCC(=O)NCC(=O)O)[C@H]1CC[C@H]2[C@@H]3[C@@H](O)C[C@@H]4C[C@H](O)CC[C@]4(C)[C@H]3CC[C@]12C [GLYCOURSODEOXYCHOLIC ACID] ?
Response: > 100 µM
